Tested on: MOLT-4
Experiment: NCI tumour cell line growth inhibition, 48 h
Active and inactive are the calls of the source. Rule as the data show it: active = GI50 up to about 1.1 µM and inactive = higher.
Valid outcomes are listed here; reply with one: Y (active), N (inactive)

Consider the following illustrative entries.
- Molecule: "N/N=C(\\CC1OC(=O)c2ccccc21)c1ccco1 (configuration not stated)"
  Label: "N"
- Molecule: "CNC(C)C(O)c1ccc2oc3cc(=O)c4ccccc4c-3nc2c1 (configuration not stated)"
  Label: "N"
- Molecule: "BrC1(c2ccccc2)C[n+]2c(-c3ccccc3)cc(-c3ccccc3)cc2-c2ccccc21 (configuration not stated)"
  Label: "Y"
- Molecule: "O=c1[nH]c(=O)n(C2CC(O)C(CO)O2)cc1OCCCc1ccccc1 (configuration not stated)"
  Label: "N"

Tell me the assay call for O=c1[nH]c(=S)[nH]c(-c2ccccc2)c1Cc1c(O)ccc2ccccc12 [CAMBINOL] please.
N

Tell me the assay call for `CC1=C2CC(C)(C)/C=C\C(=O)/C(C)=C\C3=C[C@H](C)C[C@]3(O2)C1=O` please.
Y

Tell me the assay call for `CC(=O)Nc1ccc(S(=O)(=O)N/N=C/CN2C(=O)c3ccccc3C2=O)cc1` please.
N

Tell me the assay call for O=C(O)C1CCCCC1C(=O)Nn1cnnc1 (configuration not stated) please.
N

Tell me the assay call for `c1ccc2c(Nc3ncco3)cccc2c1` please.
N

Tell me the assay call for O=C(O)CCC(=O)N1c2ccccc2CC1c1c[nH]c2ccccc12 (configuration not stated) please.
N

Tell me the assay call for `Cc1c(Cl)cccc1NC(=O)C(=O)C1C(=O)CC(C)(C)CC1=O` please.
N

Tell me the assay call for O=C(Cc1ccccc1)N/N=C(/c1nc2ccc([N+](=O)[O-])cc2nc1O)C(O)c1ccco1 (configuration not stated) please.
N

Cited source: ChEMBL document CHEMBL1201862
